biological target: RAC-gamma serine/threonine-protein kinase (Homo sapiens, UniProt Q9Y243)
Sequence (Q9Y243 whole entry): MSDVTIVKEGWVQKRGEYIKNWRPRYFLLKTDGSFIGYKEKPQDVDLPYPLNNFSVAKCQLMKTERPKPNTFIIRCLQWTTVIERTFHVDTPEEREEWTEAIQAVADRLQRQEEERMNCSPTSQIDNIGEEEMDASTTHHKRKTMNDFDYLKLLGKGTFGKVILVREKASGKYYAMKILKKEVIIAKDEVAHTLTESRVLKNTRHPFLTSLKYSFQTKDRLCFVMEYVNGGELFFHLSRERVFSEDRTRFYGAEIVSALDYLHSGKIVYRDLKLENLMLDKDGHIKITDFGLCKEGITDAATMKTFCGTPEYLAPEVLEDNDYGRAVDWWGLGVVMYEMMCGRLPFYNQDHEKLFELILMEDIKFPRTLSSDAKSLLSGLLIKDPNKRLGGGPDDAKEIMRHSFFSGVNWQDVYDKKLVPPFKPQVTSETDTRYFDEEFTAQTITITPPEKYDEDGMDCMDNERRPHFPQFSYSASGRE
pIC50: −log10 of the molar value.
reported-metric: pIC50

{"molecule": "O=C1N=CC=C2N=C(c3ccc(CN4CCC(c5n[nH]c(-c6ccccn6)n5)CC4)cc3)C(c3ccccc3)=CC12 (stereo unspecified)", "test-result": 5.72}

* * *

assay: Partition coefficient, log P of the compound; type: physicochemical; settings: octanol/water
reported-metric: logP

{"compound": "O=C1N=CC=C2N=C(c3ccc(CN4CCC(c5n[nH]c(-c6ccccn6)n5)CC4)cc3)C(c3ccccc3)=CC12 (stereo unspecified)", "reported-metric": "logP", "test-result": 3.51}

* * *

Reported IC50 values for a set of compounds
molecular target: RAC-beta serine/threonine-protein kinase (Homo sapiens); experiment: Inhibition of Akt2 by cell-based assay
Sequence (P31751 whole entry): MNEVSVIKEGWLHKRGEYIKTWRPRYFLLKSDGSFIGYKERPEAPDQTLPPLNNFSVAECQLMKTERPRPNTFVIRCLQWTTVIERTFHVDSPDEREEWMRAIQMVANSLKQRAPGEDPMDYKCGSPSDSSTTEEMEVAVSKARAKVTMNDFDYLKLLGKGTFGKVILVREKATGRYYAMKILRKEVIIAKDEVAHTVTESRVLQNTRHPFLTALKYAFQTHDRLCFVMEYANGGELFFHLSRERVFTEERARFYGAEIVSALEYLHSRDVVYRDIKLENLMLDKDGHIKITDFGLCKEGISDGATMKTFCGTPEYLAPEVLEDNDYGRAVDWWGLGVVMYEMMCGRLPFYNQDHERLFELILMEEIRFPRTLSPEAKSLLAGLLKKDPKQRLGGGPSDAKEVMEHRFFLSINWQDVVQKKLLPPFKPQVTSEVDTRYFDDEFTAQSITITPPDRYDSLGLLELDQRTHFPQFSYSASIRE

{"compound": "c1ccc(-c2cc3cccnc3nc2-c2ccc(CN3CCC(c4cc(-c5ccncc5)[nH]n4)CC3)cc2)cc1", "IC50 [nM]": 1450}
{"compound": "CCN(CC)CCNC(=O)c1ccc2nc(-c3ccccc3)c(-c3ccc(CN4CCC(n5c(=O)[nH]c6ccccc65)CC4)cc3)nc2c1", "IC50 [nM]": 730}
{"compound": "c1ccc(-c2cc3cccnc3nc2-c2ccc(CN3CCC(c4n[nH]c(-c5ccccn5)n4)CC3)cc2)cc1", "IC50 [nM]": 1080}
{"compound": "O=c1ccc(-c2cc(C3CCN(Cc4ccc(-c5nc6ncccc6cc5-c5ccccc5)cc4)CC3)n[nH]2)c[nH]1", "IC50 [nM]": 613}
{"compound": "c1ccc(-c2cc3cnccc3nc2-c2ccc(CN3CCC(c4n[nH]c(-c5ccccn5)n4)CC3)cc2)cc1", "IC50 [nM]": 2680}
{"compound": "c1ccc(-c2cc3cccnc3nc2-c2ccc(CN3CCC(c4cc(-c5ccccn5)[nH]n4)CC3)cc2)cc1", "IC50 [nM]": 995}
{"compound": "O=C1N=CC=C2N=C(c3ccc(CN4CCC(c5n[nH]c(-c6ccccn6)n5)CC4)cc3)C(c3ccccc3)=CC12 (centres undefined)", "IC50 [nM]": 266}
{"compound": "c1ccc(-c2cc3ncccc3nc2-c2ccc(CN3CCC(c4n[nH]c(-c5ccccn5)n4)CC3)cc2)cc1", "IC50 [nM]": 1480}
{"compound": "c1ccc(-c2cc3ccncc3nc2-c2ccc(CN3CCC(c4n[nH]c(-c5ccccn5)n4)CC3)cc2)cc1", "IC50 [nM]": 981}

* * *

assay: Drug concentration in mouse blood at 50 mg/kg, ip administered three times a day after 16 hrs; assay type: ADME, organism-based; set-up: dose 50 mg/kg, route intraperitoneal; conditions: whole blood, read-out: Drug uptake

{"molecule": "O=C1N=CC=C2N=C(c3ccc(CN4CCC(c5n[nH]c(-c6ccccn6)n5)CC4)cc3)C(c3ccccc3)=CC12 (stereo unspecified)", "concentration at 16 h": "2.6 µM"}

* * *

assay: Clearance in rat; format: ADME, organism-based; settings: in vivo
reported-metric: clearance (mL/min/kg)

{"compound": "O=C1N=CC=C2N=C(c3ccc(CN4CCC(c5n[nH]c(-c6ccccn6)n5)CC4)cc3)C(c3ccccc3)=CC12 (stereo unspecified)", "reported-metric": "clearance", "test-result": 4.6}

* * *

target: RAC-alpha serine/threonine-protein kinase (Homo sapiens); test: Inhibition of Akt1 by cell-based assay
Sequence (P31749 whole entry): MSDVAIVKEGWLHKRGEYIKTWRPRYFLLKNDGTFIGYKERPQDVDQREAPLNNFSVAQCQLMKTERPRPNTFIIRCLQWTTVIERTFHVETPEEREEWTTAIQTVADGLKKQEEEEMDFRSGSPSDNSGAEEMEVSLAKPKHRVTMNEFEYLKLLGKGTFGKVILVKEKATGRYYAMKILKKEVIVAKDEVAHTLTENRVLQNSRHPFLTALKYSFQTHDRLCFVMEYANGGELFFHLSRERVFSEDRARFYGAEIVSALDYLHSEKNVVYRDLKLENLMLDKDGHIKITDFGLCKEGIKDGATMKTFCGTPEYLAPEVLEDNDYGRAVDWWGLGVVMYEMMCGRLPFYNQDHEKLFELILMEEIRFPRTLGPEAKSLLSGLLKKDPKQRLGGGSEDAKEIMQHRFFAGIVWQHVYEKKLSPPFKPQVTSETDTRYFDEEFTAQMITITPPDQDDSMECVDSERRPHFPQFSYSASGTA
pIC50: −log10 of the molar value.

{"compound": "O=c1ccc(-c2cc(C3CCN(Cc4ccc(-c5nc6ncccc6cc5-c5ccccc5)cc4)CC3)n[nH]2)c[nH]1", "pIC50": 6.88}
{"compound": "c1ccc(-c2cc3cccnc3nc2-c2ccc(CN3CCC(c4n[nH]c(-c5ccccn5)n4)CC3)cc2)cc1", "pIC50": 7.08}
{"compound": "CCN(CC)CCNC(=O)c1ccc2nc(-c3ccccc3)c(-c3ccc(CN4CCC(n5c(=O)[nH]c6ccccc65)CC4)cc3)nc2c1", "pIC50": 6.28}
{"compound": "c1ccc(-c2cc3cccnc3nc2-c2ccc(CN3CCC(c4cc(-c5ccccn5)[nH]n4)CC3)cc2)cc1", "pIC50": 6.83}
{"compound": "c1ccc(-c2cc3cccnc3nc2-c2ccc(CN3CCC(c4cc(-c5ccncc5)[nH]n4)CC3)cc2)cc1", "pIC50": 6.43}
{"compound": "c1ccc(-c2cc3cnccc3nc2-c2ccc(CN3CCC(c4n[nH]c(-c5ccccn5)n4)CC3)cc2)cc1", "pIC50": 7.68}
{"compound": "c1ccc(-c2cc3ccncc3nc2-c2ccc(CN3CCC(c4n[nH]c(-c5ccccn5)n4)CC3)cc2)cc1", "pIC50": 7.51}
{"compound": "O=C1N=CC=C2N=C(c3ccc(CN4CCC(c5n[nH]c(-c6ccccn6)n5)CC4)cc3)C(c3ccccc3)=CC12 (centres undefined)", "pIC50": 7.80}
{"compound": "c1ccc(-c2cc3ncccc3nc2-c2ccc(CN3CCC(c4n[nH]c(-c5ccccn5)n4)CC3)cc2)cc1", "pIC50": 7.52}
